TESTED_ON: VEGFR-2 tyrosine kinase (Homo sapiens, UniProt P35968)
Construct: purchased BPS Bioscience 40301
Sequence (P35968 20-1356): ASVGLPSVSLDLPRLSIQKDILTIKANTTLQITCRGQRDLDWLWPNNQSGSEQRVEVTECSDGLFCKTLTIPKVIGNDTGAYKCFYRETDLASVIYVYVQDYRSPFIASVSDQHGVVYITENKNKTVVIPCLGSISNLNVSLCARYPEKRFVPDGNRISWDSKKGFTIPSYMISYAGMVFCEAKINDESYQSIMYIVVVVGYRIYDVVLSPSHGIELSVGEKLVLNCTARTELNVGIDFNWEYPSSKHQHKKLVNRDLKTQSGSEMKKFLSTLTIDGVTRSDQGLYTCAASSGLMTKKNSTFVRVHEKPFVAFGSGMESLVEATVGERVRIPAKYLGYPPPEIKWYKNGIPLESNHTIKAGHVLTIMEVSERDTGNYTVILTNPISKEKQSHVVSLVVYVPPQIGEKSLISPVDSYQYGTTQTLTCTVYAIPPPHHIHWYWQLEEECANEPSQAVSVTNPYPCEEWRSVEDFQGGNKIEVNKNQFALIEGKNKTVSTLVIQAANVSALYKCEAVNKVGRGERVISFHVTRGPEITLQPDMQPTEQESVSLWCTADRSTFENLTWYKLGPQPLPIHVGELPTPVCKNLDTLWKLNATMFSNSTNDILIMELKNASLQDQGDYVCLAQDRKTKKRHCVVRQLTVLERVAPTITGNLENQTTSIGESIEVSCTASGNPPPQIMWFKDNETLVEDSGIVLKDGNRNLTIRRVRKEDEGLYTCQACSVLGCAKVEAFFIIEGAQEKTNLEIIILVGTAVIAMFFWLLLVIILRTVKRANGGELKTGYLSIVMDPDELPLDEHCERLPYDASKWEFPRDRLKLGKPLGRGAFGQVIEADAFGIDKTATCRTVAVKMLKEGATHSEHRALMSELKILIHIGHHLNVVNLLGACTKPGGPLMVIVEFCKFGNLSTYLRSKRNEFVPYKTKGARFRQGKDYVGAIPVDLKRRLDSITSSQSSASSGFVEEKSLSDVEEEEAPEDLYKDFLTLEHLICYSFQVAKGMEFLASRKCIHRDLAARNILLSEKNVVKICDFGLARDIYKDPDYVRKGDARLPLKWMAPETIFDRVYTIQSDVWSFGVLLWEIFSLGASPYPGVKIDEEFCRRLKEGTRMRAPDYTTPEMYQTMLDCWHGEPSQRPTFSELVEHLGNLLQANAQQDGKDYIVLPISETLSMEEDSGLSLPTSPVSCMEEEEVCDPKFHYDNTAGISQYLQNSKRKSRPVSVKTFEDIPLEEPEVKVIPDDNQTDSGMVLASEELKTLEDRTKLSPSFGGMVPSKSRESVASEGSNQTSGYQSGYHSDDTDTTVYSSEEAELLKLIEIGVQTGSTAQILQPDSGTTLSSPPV
TEST_PROTOCOL: In vitro VEGFR-2 tyrosine kinase assay (BPS Bioscience)
Assay type: biochemical
CONDITION_CONTEXT: read-out: VEGFR-2 % inhibition; 10 μM concentration
OBSERVED_PROPERTY: inhibition at 10 µM (%)
Numbers only, in %.

Hi! Can you tell me inhibition at 10 µM for each of these compounds?
1. Cc1nnc(Nc2ccc(NC(=O)Nc3ccc(Cl)cc3)cc2)c2ccccc12 [Compound 6e]
2. Cc1nnc(Oc2ccc(NC(=O)Nc3ccc(Cl)c(C(F)(F)F)c3)cc2)c2ccccc12 [Compound 7f]
3. O=C(Nc1ccc(Cl)cc1)Nc1ccc(Oc2nnc(Cl)c3ccccc23)cc1 [Compound 13b]
4. Cc1nnc(Nc2ccc(NC(=O)Nc3ccc(Cl)c(C(F)(F)F)c3)cc2)c2ccccc12 [Compound 6f]

19
21
38
32

The following compounds each have a reported value; give each one's inhibition at 10 µM.
1. Cc1nnc(N2CCN(c3ccccc3F)CC2)c2ccccc12 [Compound 8h]
2. O=C(Nc1ccc(Cl)cc1)Nc1ccc(Nc2nnc(Cl)c3ccccc23)cc1 [Compound 12b]
3. Cc1nnc(Nc2ccc(NC(=O)c3ccc(Cl)cc3)cc2)c2ccccc12 [Compound 5d]
4. CCOC(=O)N1CCN(c2nnc(C)c3ccccc23)CC1 [Compound 8f]
5. COc1cccc(NCc2nnc(Nc3ccc(Cl)cc3)c3ccccc23)c1 [Compound 16d]
6. O=C(c1ccco1)N1CCN(c2nncc3ccccc23)CC1 [Compound 8e]
7. CCOC(=O)N1CCN(c2nncc3ccccc23)CC1 [Compound 8a]

9
70
15
14
24
9
13

# batch: return inhibition at 10 µM for each of the 4 compounds below
1. Cc1nnc(Nc2ccc(NC(=O)c3ccccc3)cc2)c2ccccc12 [Compound 5c]
2. Cc1cccc(OCc2nnc(Nc3ccc(Cl)cc3)c3ccccc23)c1 [Compound 17b]
3. Fc1ccccc1N1CCN(c2nncc3ccccc23)CC1 [Compound 8c]
4. O=C(Nc1ccc(Nc2nncc3ccccc23)cc1)c1ccccc1 [Compound 5a]

[12, 15, 9, 4]

Would you be so kind as to report inhibition at 10 µM for each listed record?
1. c1ccc(N2CCN(c3nncc4ccccc34)CC2)nc1 [Compound 8d]
2. O=C(Nc1ccc(Nc2nnc(Cl)c3ccccc23)cc1)Nc1ccc(Cl)c(C(F)(F)F)c1 [Compound 12c]
3. Cc1nnc(Oc2ccc(NC(=O)Nc3ccc(Cl)cc3)cc2)c2ccccc12 [Compound 7e]
4. Cc1nnc(Nc2ccc(NC(=O)Nc3ccccc3)cc2)c2ccccc12 [Compound 6d]

1: 5; 2: 78; 3: 14; 4: 15

Just for reference, paper PMC6691788 is where these values come from.
